meta.source: patent US20250368645A1

- measured.on: human KOR (Homo sapiens)
- Sequence (P41145 whole entry): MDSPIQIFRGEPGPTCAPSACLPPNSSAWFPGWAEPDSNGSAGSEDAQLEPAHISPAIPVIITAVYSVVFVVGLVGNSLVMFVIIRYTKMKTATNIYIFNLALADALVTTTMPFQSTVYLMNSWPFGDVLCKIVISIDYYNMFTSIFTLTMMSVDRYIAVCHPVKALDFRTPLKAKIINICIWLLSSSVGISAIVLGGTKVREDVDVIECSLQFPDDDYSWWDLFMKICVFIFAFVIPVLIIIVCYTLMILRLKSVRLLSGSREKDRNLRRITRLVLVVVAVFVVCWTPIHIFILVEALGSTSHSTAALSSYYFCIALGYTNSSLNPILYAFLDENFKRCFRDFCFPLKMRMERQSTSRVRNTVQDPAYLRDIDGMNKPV
- assay.comment: GloSensor assay, Gi-mediated cAMP inhibition in HEK-293T cells transfected with human KOR
- Format: cell-based
- measurement.parameters: KOR; GloSensor versus Tango
G-Protein Bias factor (IC50 -Glosensor/- EC50 - Tango) for assorted compounds
property.name: G-Protein Bias factor (IC50 -Glosensor/- EC50 - Tango)

compound="Fc1ccc(-n2c[n+]3ccc4c5ccccc5[nH]c4c3c2-c2ccccc2Cl)cc1.[Cl-] [8aed]" value_measured=1.06
compound="Clc1ccc(-c2c3c4[nH]c5ccccc5c4cc[n+]3cn2-c2ccc(Br)cc2)cc1.[Cl-] [8adb]" value_measured=1.44
compound="Fc1ccc(-n2c[n+]3ccc4c5ccccc5[nH]c4c3c2-c2ccc(Br)cc2)cc1.[Cl-] [8abd]" value_measured=2.33
compound="Clc1ccc(-n2c[n+]3ccc4c5ccccc5[nH]c4c3c2-c2ccc(Br)cc2)cc1.[Cl-] [8abc]" value_measured=2.35
